Below, each entry is listed with its recorded composite z-score.
# System: Sam68 (KHDRBS1)
# test_protocol: Sam68 small-molecule binders, primary screen, biochemical, small-molecule microarray, 635 nm fluorescence (AID 1125);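 note: score merges 667 nm channel intensity with signal to noise over triplicate slides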
# protocol_conditions: small-molecule microarray binding, higher = more signal
Would you mind answering with just the numeric figure?

compound: C=CCN1C(=O)[C@]2(O[C@H](CCn3cc([C@H](O)c4ccccc4)nn3)[C@@H]([Si](C)(C)c3ccc(OC)cc3)[C@@H]2C)c2cc(N3C(=O)c4cccc5cccc3c45)ccc21
composite z-score: 0.598

Task item: Suppose we examine the compound "COc1ccc([Si](C)(C)[C@H]2[C@H](CCO)O[C@@]3(C(=O)N(Cc4ccc(N5CCOC5=O)cc4)c4ccccc43)[C@@H]2C)cc1" ; what composite z-score value has been reported?
Reply: 0.968

Task item: Suppose we examine the compound CCCCCCCCCCC(O)C1C=CC2C(=O)N(C)C(=O)C2N1N1CCCCC1 (centres undefined) ; what composite z-score value has been reported?
Reply: -0.555

Task item: Suppose we examine the compound "CC#CCO[Si](C#CCCCCCC)(C(C)C)C(C)C" ; what composite z-score value has been reported?
Reply: 0.204

----------
# target_or_system: Left-right determination factor 2 (Homo sapiens) (UniProt O00292)
# Sequence (O00292 whole entry, looked up): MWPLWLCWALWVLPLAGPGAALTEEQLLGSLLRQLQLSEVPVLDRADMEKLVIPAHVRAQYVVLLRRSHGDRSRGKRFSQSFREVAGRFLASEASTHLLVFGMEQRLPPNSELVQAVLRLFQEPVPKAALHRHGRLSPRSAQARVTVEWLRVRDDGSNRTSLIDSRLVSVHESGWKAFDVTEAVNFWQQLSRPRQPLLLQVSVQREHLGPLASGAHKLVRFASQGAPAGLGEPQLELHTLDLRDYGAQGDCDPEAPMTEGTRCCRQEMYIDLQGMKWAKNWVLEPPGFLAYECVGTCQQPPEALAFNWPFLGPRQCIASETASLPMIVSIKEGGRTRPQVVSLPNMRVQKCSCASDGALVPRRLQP
# test_protocol: LEFTY2 binders on small-molecule microarrays, primary screen, biochemical, small-molecule microarray, 635 nm fluorescence scan (AID 1110)
# protocol_conditions: LEFTY2 binding, higher = more signal
Each entry falls in a class defined on composite z-score; the bands are lower level = under -0.3, middle level = from -0.3 up to 0.007, upper level = 0.007 and over

compound: Cc1ccc(F)cc1S(=O)(=O)N[C@@H]1CCN(Cc2ccc3c(c2)OCO3)C1
assigned_label: upper level
//
compound: CCOC(=O)C1=CC[C@@H](c2ccccc2Cl)N(S(=O)(=O)c2ccc(C)cc2)[C@H]1c1cccc(OC)c1
assigned_label: middle level
//
compound: CN1C(=O)[C@]2(CCC(=O)OC(C)(C)C)N=C(c3ccc(OCCCO)cc3)O[C@@H]2c2ccccc21
assigned_label: middle level

Task item: Class? Entry: "CCCC[C@@H]1C[C@H]1[C@@H](NC(=O)Cc1ccccc1)c1ccc(Cl)cc1"
Reply: lower level

Task item: Class? Entry: "COCCOC(=O)N1C(=O)[C@@]2(c3cc(C#CC4=CCCCC4)ccc31)[C@H](C(=O)N1CCN(c3ncccn3)CC1)[C@H]1C(=O)O[C@H](c3ccccc3)[C@H](c3ccccc3)N1[C@@H]2c1ccccc1OCCO"
Reply: upper level

Task item: Class? Entry: C=CCC(OC(C)=O)[C@@H]1[C@@H](N(Cc2cc3ccccc3o2)C(=O)Cc2ccc(OC)cc2)c2cc(OCCCO)ccc2N1C(=O)Cc1ccc(OC)cc1 (stereo partly drawn)
Reply: middle level

Task item: Class? Entry: "CN(C)CCCC[C@@H]1NC(=O)[C@@H]2C[C@H](C(=O)NCc3ccc(F)cc3)[C@H](c3ccc(O)cc3)N2C1=O"
Reply: middle level

Task item: Class? Entry: CCC(CC)C(O)C1C=CC2C(=O)N(C)C(=O)C2N1N1CCCCC1 (stereo not drawn)
Reply: upper level

Task item: Class? Entry: CN1C(=O)C2C(C1=O)C1C=C(c3ccc(CO)cc3)C2C(c2cccs2)N1C (stereo not drawn)
Reply: middle level

----------
# target_or_system: Luciferin 4-monooxygenase (Photinus pyralis) (UniProt P08659)
# Sequence (P08659 whole entry, looked up): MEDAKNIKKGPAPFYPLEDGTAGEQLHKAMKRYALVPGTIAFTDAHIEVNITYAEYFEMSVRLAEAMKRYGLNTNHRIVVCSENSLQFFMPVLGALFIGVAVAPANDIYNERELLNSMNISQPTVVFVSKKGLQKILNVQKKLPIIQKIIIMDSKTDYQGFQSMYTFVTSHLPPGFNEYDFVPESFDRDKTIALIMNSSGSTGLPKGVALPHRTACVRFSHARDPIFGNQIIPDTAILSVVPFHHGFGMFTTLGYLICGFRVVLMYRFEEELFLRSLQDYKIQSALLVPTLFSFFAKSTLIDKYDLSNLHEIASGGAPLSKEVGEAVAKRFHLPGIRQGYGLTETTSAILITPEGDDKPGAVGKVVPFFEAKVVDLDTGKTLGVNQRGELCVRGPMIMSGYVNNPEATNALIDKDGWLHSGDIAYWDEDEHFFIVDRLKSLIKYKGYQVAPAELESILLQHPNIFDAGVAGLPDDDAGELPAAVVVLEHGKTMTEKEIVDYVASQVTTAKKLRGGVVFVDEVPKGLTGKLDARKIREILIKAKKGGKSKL
# test_protocol: firefly luciferase enzyme inhibitors, primary screen, biochemical, luminescence, purified enzyme, 2006 set (AID 1141);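 note: cell-free assay with purified firefly luciferase at 100 ng per well in PBS; test concentration not given here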
# protocol_conditions: SteadyGlo luminescence, 30 min, higher = more signal, called active from +8 up or from −8 down
Classify as follows. Reported z-score greater than or equal to -0.6: 1. Reported z-score below: 0.

compound: C=CCC(OC(C)=O)[C@@H]1[C@@H](N(Cc2cc3ccccc3o2)C(=O)c2ccc(-c3ccccc3)cc2)c2cc(OCCCO)ccc2N1C(=O)c1ccc2ccccc2n1 (some centres not stated)
assigned_label: 0
--
compound: CCCCCCc1nc(-c2ccc(OC)nc2)cc2c1[Si](C(C)C)(C(C)C)OC2
assigned_label: 1
--
compound: COc1ccc(C(O)C2C=CC3C(=O)N(C)C(=O)C3N2Nc2ccc([N+](=O)[O-])cc2[N+](=O)[O-])cc1OCc1ccccc1 (configuration not stated)
assigned_label: 1
--
compound: COC(=O)[C@H](Cc1ccc(O)cc1)N1CC2=CCCC=C[C@@H]2[C@H]1[C@H](O)Cc1ccccc1
assigned_label: 0

Task item: Does z-score meet or surpass -0.6 for "COCC(=C=CC[C@@H](O)c1ccc(OCCO)cc1)C[C@@H](O)COCc1ccccc1" ?
Reply: 0

Task item: Does z-score meet or surpass -0.6 for "C=C(COC)/C(=C/C[C@H](OC(=O)c1ccncc1)c1cccc(OCCO)c1)c1cnc2ccccc2c1" ?
Reply: 0

----------
# target_or_system: Follistatin-related protein 3 (Homo sapiens) (UniProt O95633)
# Sequence (O95633 whole entry, looked up): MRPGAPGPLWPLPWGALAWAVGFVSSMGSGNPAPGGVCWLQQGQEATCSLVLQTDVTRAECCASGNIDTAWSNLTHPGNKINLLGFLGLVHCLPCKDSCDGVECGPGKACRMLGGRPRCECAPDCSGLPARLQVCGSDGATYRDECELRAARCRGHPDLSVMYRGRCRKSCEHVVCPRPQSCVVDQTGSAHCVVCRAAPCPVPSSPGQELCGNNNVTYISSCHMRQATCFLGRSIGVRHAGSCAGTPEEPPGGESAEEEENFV
# test_protocol: FSTL3 binders on small-molecule microarrays, primary screen, biochemical, small-molecule microarray, 635 nm fluorescence (AID 1105);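 note: score merges emission near 667 nm and signal to noise per printed spot across three slides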
# protocol_conditions: FSTL3 binding, higher = more signal
Below, each entry is listed with its recorded composite z-score.
Would you mind answering with just the numeric figure?

molecule: CCCCNC(=O)c1ccc(C#C[Si](C)(C)C)c(OC(C)=O)c1
target_or_system: Follistatin-related protein 3 (Homo sapiens) (UniProt O95633)
composite z-score: 0.384
//
molecule: COCCOC(=O)N1C(=O)[C@@]2(c3cc(C#CCC(C(=O)OC)C(=O)OC)ccc31)[C@H](C(=O)N1CCc3cc(OC)c(OC)cc3C1)[C@H]1C(=O)O[C@H](c3ccccc3)[C@H](c3ccccc3)N1[C@@H]2c1ccc(O)cc1
target_or_system: Follistatin-related protein 3 (Homo sapiens) (UniProt O95633)
composite z-score: 1.47
//
molecule: C=C(C(=O)CC[C@@H](OC(C)=O)c1cccc(OCCO)c1)C(C)C
target_or_system: Follistatin-related protein 3 (Homo sapiens) (UniProt O95633)
composite z-score: -0.0718
//
molecule: COc1ccc(CCNC(=O)[C@@H]2c3ccccc3C(=O)N(CC34CC5CC(CC(C5)C3)C4)[C@H]2c2ccc(CO)cc2)cc1
target_or_system: Follistatin-related protein 3 (Homo sapiens) (UniProt O95633)
composite z-score: 0.644
//
molecule: CCOC(=O)C1=CC[C@@H](c2ccc(F)cc2)N(S(=O)(=O)c2ccc(C)cc2)[C@H]1c1ccc([N+](=O)[O-])cc1
target_or_system: Follistatin-related protein 3 (Homo sapiens) (UniProt O95633)
composite z-score: 0.485

Task item: Field: composite z-score (Follistatin-related protein 3 (Homo sapiens) (UniProt O95633)). Entry: "CCCCCCc1nc(-c2ccc(OC)nc2)cc2c1[Si](C(C)C)(C(C)C)OC2"
Reply: -0.351

Task item: Field: composite z-score (Follistatin-related protein 3 (Homo sapiens) (UniProt O95633)). Entry: "CC(C)CNC(=O)[C@@H]1c2ccccc2C(=O)N(C2Cc3ccccc3C2)[C@H]1c1ccc(CO)cc1"
Reply: -0.192

Task item: Field: composite z-score (Follistatin-related protein 3 (Homo sapiens) (UniProt O95633)). Entry: "COCCOC(=O)N1C(=O)[C@@]2(c3cc(C#CC4=CCCCC4)ccc31)[C@H](C(=O)N1CCc3cc(OC)c(OC)cc3C1)[C@H]1C(=O)O[C@H](c3ccccc3)[C@H](c3ccccc3)N1[C@@H]2c1ccc(O)cc1"
Reply: 0.583

----------
# test_protocol: E. coli acrAB mutant growth effects, primary screen, E. coli filamentation inducers, strain DRC39, OD650, 24 h (AID 1178);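 note: growth measured as culture turbidity by optical density at 650 nm; test concentration not given here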
# protocol_conditions: higher = more signal, called active from +8 up or from −8 down
parameter_measured: z-score
Would you mind answering with just the numeric figure?

Worked set:
compound: CC(C)C(=C=CC[C@@H](O)c1ccccc1OCCO)C[C@@H](O)c1cc(Cl)cc(Cl)c1O
parameter_measured: z-score
data_value: -0.501
--
compound: CCOC(=O)C[C@H]1[C@H](OC(=O)c2ccc(-c3ccccc3)cc2)[C@@H](NC(=O)c2ccc3ccccc3c2)c2cc(OCCCO)ccc2N1C(=O)c1ccccc1
parameter_measured: z-score
data_value: -0.0319
--
compound: CC(C)C[C@@H]1NC(=O)[C@@H]2C[C@H](C(=O)NCCCC[N+](C)(C)C)[C@H](c3ccc(O)cc3)N2C1=O
parameter_measured: z-score
data_value: 0.382
--
compound: Cc1ccc(S[C@]2(C(=O)NCCN3CCOCC3)CC(=O)N(C3CCCCC3)[C@@H]2c2ccc(CO)cc2I)cc1
parameter_measured: z-score
data_value: 0.464
--
compound: COC(=O)[C@@]1(Cc2ccc(F)cc2)[C@H]2c3cc(C(=O)N(C)C)n(CCN4CCOCC4)c3C[C@H]2CN1C(=O)c1ccccc1
parameter_measured: z-score
data_value: 0.187

Task item: Suppose we examine the compound "C=CCOC(=O)[C@@H]1[C@H]2C(=O)O[C@H](c3ccccc3)[C@H](c3ccccc3)N2[C@H](c2ccc(OCCOC(=O)[C@H]3C[C@H]4C(=O)NCC(=O)N4[C@H]3c3ccc(O)cc3)cc2)[C@@]12C(=O)Nc1ccc(I)cc12" ; what z-score value has been reported?
Reply: -0.0185

Task item: Suppose we examine the compound C=CCC(OC(C)=O)[C@@H]1[C@@H](N(Cc2ccc(-c3cccc(C(F)(F)F)c3)o2)C(=O)Cc2ccc(F)cc2)c2cc(OCCCO)ccc2N1C(=O)c1ccc2ccccc2n1 (stereo partly drawn) ; what z-score value has been reported?
Reply: -0.36
